experiment: Octanol-water partition coefficient, log P of the compound by shake-flask method; type: physicochemical
Hi, to clarify the labels: class 1 covers logP from -0.8 upward, class 0 covers anything below -0.8.

Exam item: Please indicate if the recorded logP for Cc1cc(=O)c(O)cn1C meets or exceeds -0.8.
Marked response: class 0

Exam item: Please indicate if the recorded logP for Cn1ccc(=O)c(O)c1F meets or exceeds -0.8.
Marked response: class 0

Exam item: Please indicate if the recorded logP for COc1c[nH]cc(C)c1=O meets or exceeds -0.8.
Marked response: class 1

Exam item: Please indicate if the recorded logP for COc1c[nH]cc(CN(C)C)c1=O meets or exceeds -0.8.
Marked response: class 0

Exam item: Please indicate if the recorded logP for COc1c[nH]ccc1=O meets or exceeds -0.8.
Marked response: class 0

Exam item: Please indicate if the recorded logP for Cc1[nH]cc(C)c(=O)c1O meets or exceeds -0.8.
Marked response: class 1

Exam item: Please indicate if the recorded logP for Cn1cc(O)c(=O)c(F)c1 meets or exceeds -0.8.
Marked response: class 0

Exam item: Please indicate if the recorded logP for Cc1cc(=O)c(F)c[nH]1 meets or exceeds -0.8.
Marked response: class 1

Exam item: Please indicate if the recorded logP for Cc1cn(C)cc(O)c1=O meets or exceeds -0.8.
Marked response: class 0

Exam item: Please indicate if the recorded logP for Cc1c[nH]cc(O)c1=O meets or exceeds -0.8.
Marked response: class 1

Exam item: Please indicate if the recorded logP for Cn1ccc(=O)c(O)n1 meets or exceeds -0.8.
Marked response: class 0

Exam item: Please indicate if the recorded logP for Cc1cn(C)c(C)c(O)c1=O meets or exceeds -0.8.
Marked response: class 1

Exam item: Please indicate if the recorded logP for Cn1cc(O)c(=O)cn1 meets or exceeds -0.8.
Marked response: class 0

Exam item: Please indicate if the recorded logP for COc1cn(C)cc(C)c1=O meets or exceeds -0.8.
Marked response: class 0

Exam item: Please indicate if the recorded logP for Cc1nccc(O)c1O meets or exceeds -0.8.
Marked response: class 1

Exam item: Please indicate if the recorded logP for Cc1cc(=O)c(O)c[nH]1 meets or exceeds -0.8.
Marked response: class 1

###

assay: Binding affinity to iron(3) assessed as pFe3+ values after 5 mins
Hi, to clarify the labels: satisfied covers Activity from 20 upward, not satisfied covers anything below 20.

Exam item: Please indicate if the recorded Activity for Cc1[nH]cc(C)c(=O)c1O meets or exceeds 20.
Marked response: not satisfied

Exam item: Please indicate if the recorded Activity for Cc1c(O)c(=O)ccn1C meets or exceeds 20.
Marked response: satisfied

###

Field: Activity. Provide a value for each of the compounds that follow.
assay: Binding affinity to iron(3) assessed as pFe3+ values after 5 mins
# respond with the number and nothing more

Exam item: Query: Activity; subject: Cc1cc(=O)c(O)cn1C
Marked response: 20.4

Exam item: Query: Activity; subject: Cc1cn(C)cc(O)c1=O
Marked response: 20.5

Exam item: Query: Activity; subject: Cc1cc(=O)c(O)c[nH]1
Marked response: 20.1

Exam item: Query: Activity; subject: Cc1cn(C)c(C)c(O)c1=O
Marked response: 19.7

Exam item: Query: Activity; subject: Cc1nccc(O)c1O
Marked response: 20.2

Exam item: Query: Activity; subject: Cc1c[nH]cc(O)c1=O
Marked response: 20.1
